Molecular target: Ataxin-2 (Homo sapiens) (UniProt Q99700)
Sequence (Q99700 whole entry): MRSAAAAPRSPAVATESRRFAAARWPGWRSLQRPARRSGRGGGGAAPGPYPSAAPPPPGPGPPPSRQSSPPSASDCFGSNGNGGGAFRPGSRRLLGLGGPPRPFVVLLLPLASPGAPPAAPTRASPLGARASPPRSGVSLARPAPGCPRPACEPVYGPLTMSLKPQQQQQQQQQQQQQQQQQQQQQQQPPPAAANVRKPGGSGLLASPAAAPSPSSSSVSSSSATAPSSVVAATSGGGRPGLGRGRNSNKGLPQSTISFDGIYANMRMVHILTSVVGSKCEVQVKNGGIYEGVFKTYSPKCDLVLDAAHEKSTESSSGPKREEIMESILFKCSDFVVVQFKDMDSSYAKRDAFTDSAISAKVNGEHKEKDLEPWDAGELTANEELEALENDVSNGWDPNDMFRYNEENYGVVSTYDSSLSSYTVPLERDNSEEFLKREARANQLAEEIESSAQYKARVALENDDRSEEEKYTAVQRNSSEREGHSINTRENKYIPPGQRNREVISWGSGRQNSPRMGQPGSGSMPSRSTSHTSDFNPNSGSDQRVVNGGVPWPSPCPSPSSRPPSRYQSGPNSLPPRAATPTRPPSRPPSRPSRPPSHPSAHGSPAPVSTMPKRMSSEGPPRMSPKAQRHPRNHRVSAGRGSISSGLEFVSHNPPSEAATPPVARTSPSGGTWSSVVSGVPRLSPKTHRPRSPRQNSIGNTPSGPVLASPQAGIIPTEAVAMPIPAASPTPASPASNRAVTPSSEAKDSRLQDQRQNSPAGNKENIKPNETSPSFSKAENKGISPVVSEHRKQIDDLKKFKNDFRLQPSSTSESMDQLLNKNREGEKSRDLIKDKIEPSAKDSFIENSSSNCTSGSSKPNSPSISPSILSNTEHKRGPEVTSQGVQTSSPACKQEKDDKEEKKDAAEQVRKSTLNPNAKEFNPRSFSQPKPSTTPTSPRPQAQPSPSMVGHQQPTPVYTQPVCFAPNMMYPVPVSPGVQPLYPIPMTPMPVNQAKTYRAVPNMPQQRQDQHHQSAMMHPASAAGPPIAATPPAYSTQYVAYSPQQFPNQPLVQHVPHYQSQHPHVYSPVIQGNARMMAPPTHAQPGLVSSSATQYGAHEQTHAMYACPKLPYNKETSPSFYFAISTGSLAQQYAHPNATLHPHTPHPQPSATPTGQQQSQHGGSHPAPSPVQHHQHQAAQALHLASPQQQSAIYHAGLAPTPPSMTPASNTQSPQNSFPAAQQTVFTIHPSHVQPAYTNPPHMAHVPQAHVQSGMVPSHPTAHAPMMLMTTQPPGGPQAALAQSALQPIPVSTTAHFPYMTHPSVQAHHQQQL
Assay: qHTS for Inhibitors of ATXN expression.
Assay type: functional
About 2,100 (0.53%) of roughly 400,000 compounds were called active. Roughly 14% stayed inconclusive and do not appear here. Shown is part of a subset that was picked to be rich in actives.
measured-parameter: Potency

Example cases with answers are listed next.
Cc1cc(C)c2c(N)c(C(=O)C(C)(C)C)sc2n1 :: inactive
N#CC1=C(N)Oc2ccc3ccccc3c2C1c1cccnc1 (stereo not drawn) :: 12.6 µM (active)
COc1ccc(-c2c(C#N)c(N)nc3c2CCC3)cc1 :: inactive
O/C(=C\c1nc2ccccc2nc1O)c1cccs1 :: inactive
Cc1ccc(NC(=S)N/N=C/c2ccc([N+](=O)[O-])s2)cc1 :: 39.8 µM (active)

I need Potency for every entry listed below, if you could help.
1. COc1ccc(-c2nc3ccc(C)cn3c2Cc2cccc(F)c2)cc1OC
2. COc1cccc(/C=C/C(=O)Nc2cccc(C(C)=O)c2)c1OC
3. COc1ccc(-c2cc(C(F)(F)F)c3c(N)c(C(=O)NCCSC)sc3n2)cc1
4. C=CCOc1ccc(/C=N\NC(N)=S)cc1
5. CCOc1ccccc1NC(=O)c1sc2nc(-c3ccc(OC)cc3)ccc2c1N
6. COc1ccc([N+](=O)[O-])cc1NC(=O)C(C)OC(=O)CN1C(=O)C2CC=CCC2C1=O (stereo not drawn)

Result:
39.8 µM (active)
inactive
inactive
22.4 µM (active)
inactive
inactive

I need Potency for every entry listed below, if you could help.
1. Cc1ccc2nc(N3CCC(C(=O)O)CC3)nc(-c3ccccc3)c2c1
2. N#Cc1c(N)n(CCNC(=O)c2cccs2)c2nc3ccccc3nc12
3. Cc1cccc(NC(=S)N/N=C/c2ccc([N+](=O)[O-])s2)c1

Result:
inactive
inactive
31.6 µM (active)

I need Potency for every entry listed below, if you could help.
1. Cc1c(C(=O)NCc2ccc3c(c2)cc(C)n3C)cccc1[N+](=O)[O-]
2. Cc1ccc(C)c(N(C(=O)c2snc(C(N)=O)c2N)C(C(=O)NCC2CCCO2)c2ccc(C)o2)c1 (stereo not drawn)
3. CCN(C(=O)COC(=O)c1ccc(OC)c(S(=O)(=O)N(C)Cc2ccccc2)c1)C1CCS(=O)(=O)C1 (stereo not drawn)
4. CCCCN=C(S)NNc1c(Cl)cc(Cl)cc1Cl
5. CCCCNc1c(-c2ccc(OC)c(SC(C)CC)c2)nc2cnccn12 (stereo not drawn)
6. CCOc1ccccc1NC(=O)c1c(NC(=O)Cc2ccc(OC)cc2)sc2c1CCC2

Result:
["inactive", "inactive", "inactive", "inactive", "inactive", "25.1 µM (active)"]

I need Potency for every entry listed below, if you could help.
1. COc1ccc(-c2nc3ccc(C)cn3c2Cc2ccc(C)cc2)cc1OC
2. Cc1cccc(NC(=O)C(C)Oc2ccc(C)nc2[N+](=O)[O-])c1 (stereo not drawn)
3. Cn1c(C(=O)O)cc2c(=O)n3ccccc3nc21

Result:
["20 µM (active)", "inactive", "inactive"]
